The entries below are paired with their reported PBM E-score.
# ASSAYED_SYSTEM: Cst6 (UniProt P40535)
# Sequence (P40535 whole entry): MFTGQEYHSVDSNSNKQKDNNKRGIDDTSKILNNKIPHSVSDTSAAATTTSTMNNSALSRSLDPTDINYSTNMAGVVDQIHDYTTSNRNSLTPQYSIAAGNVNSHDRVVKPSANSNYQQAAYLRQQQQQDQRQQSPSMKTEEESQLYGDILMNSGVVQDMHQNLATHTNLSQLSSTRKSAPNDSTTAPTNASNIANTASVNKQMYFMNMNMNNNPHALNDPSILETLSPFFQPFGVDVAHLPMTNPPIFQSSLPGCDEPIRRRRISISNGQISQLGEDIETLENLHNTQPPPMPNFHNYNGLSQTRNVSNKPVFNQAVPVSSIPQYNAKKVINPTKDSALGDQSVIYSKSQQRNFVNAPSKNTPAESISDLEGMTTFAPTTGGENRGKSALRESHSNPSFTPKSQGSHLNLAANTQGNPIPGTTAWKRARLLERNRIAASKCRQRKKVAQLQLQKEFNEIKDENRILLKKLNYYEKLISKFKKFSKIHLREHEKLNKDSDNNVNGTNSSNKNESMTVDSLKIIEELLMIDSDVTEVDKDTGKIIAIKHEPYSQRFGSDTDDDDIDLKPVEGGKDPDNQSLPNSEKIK
# TEST: PBM E-score (8-mer binding enrichment) (E-score (-0.5 to 0.5)); higher = stronger / more preferred TF binding
# CONDITIONS: protein concentration: 200 nM; construct: GST-DNA-binding domain
Whole data set: some 33,000 sequences, median “E-score (-0.5 to 0.5)” near -0.016, cut for the highest 2% near 0.31. For the sample, the highest values were picked, then their nearest neighbours and some sequences at random.
QUANTITY_NAME: PBM E-score

>>> assay_result("TAACCTAA")
0.158
>>> assay_result("AAGCTTTG")
-0.087
>>> assay_result("ATTCCAAA")
0.118
>>> assay_result("ATCACGTG")
0.135
>>> assay_result("CCGGTAGA")
-0.132
>>> assay_result("ACGGCAAA")
0.28
>>> assay_result("ACAATGAT")
0.269
>>> assay_result("CCGCTTGA")
0.0541
>>> assay_result("CGCTGACA")
0.166
>>> assay_result("CCGGGCGC")
-0.213
>>> assay_result("CAATAAGA")
0.181
>>> assay_result("CTTACGAA")
0.119
>>> assay_result("CACTGACG")
0.371
>>> assay_result("CGCTGACG")
0.384
>>> assay_result("ATTACCTG")
0.14
>>> assay_result("CAGACGTA")
0.0968
>>> assay_result("GGGCGGGA")
-0.0359
>>> assay_result("ACAATGAC")
0.336
>>> assay_result("ACTACGTG")
-0.0819
>>> assay_result("ATTCCCGG")
0.041
>>> assay_result("ACGATCAA")
0.135
>>> assay_result("CCAATGAA")
-0.187
>>> assay_result("GTGACGTA")
0.496
>>> assay_result("CCAATGAC")
0.314
>>> assay_result("AGGAGACA")
-0.0509
>>> assay_result("GCGACGTA")
0.219
>>> assay_result("GCGCAATA")
-0.079
>>> assay_result("AGTTCCCG")
-0.205
>>> assay_result("ATCACGTA")
0.344
>>> assay_result("TCGGACAA")
0.0914
>>> assay_result("AGATTGAG")
0.228
>>> assay_result("ATTTGACA")
0.173
>>> assay_result("AGCTGACC")
-0.126
>>> assay_result("CTCCGTAA")
-0.0462
>>> assay_result("ACGCTCAT")
0.114
>>> assay_result("AGGACGTG")
-0.088
>>> assay_result("GTTACGGA")
0.11
>>> assay_result("TCGAAGCA")
-0.0376
>>> assay_result("TGCTACAA")
0.0326
>>> assay_result("AGTACGTG")
-0.125
>>> assay_result("ACAATGAG")
-0.0976
>>> assay_result("CTTACGTA")
0.466
>>> assay_result("ATTACGTG")
0.46
>>> assay_result("GCAATGAC")
0.3
>>> assay_result("GTTACGTA")
0.46
>>> assay_result("CATTTAGA")
0.136

This collection of values is drawn from the supplement of paper PMC3334620.
